// data source = patent US20230002361A1

- SYSTEM: IRAK4 (Homo sapiens, UniProt Q9NWZ3)
- Construct: with 0.1 nM IRAK4, 1.6 μM of biotinylated peptide substrate and 10 μM ATP
- Sequence (Q9NWZ3 1-460): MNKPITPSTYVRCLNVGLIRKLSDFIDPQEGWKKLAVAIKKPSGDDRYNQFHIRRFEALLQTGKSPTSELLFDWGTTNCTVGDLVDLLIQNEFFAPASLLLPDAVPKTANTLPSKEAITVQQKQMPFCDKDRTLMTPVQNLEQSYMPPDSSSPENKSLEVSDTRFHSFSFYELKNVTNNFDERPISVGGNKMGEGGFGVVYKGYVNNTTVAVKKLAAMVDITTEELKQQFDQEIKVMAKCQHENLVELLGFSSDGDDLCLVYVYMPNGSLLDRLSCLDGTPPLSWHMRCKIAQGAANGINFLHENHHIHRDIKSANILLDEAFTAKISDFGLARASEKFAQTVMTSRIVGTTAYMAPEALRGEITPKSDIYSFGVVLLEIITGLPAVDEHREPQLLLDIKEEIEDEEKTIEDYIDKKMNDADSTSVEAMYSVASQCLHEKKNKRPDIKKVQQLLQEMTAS
- TEST: IRAK4 MSD Biochemical Assay (10 μM ATP, 2 h)
- CONDITION: 0.1 nM IRAK4, 2 h, room temperature
Below: a set of entries, each annotated with reported IC50.
# unit: nM | format: bare number

Example molecules with recorded IC50:
INSERT INTO results (molecule, system, unit_string, val) VALUES
  ('COc1cc2nn(CCC(C)(C)OC)cc2cc1C(=O)Nc1cccc(C(F)F)n1', 'IRAK4 (Homo sapiens, UniProt Q9NWZ3)', 'nM', 2),
  ('COc1cc2nn(CC3CCOC3)cc2cc1C(=O)Nc1cccc(C(F)F)n1 (stereo not drawn)', 'IRAK4 (Homo sapiens, UniProt Q9NWZ3)', 'nM', 2);

Entry `COCCn1cc2cc(C(=O)Nc3cccc(C(F)F)n3)c(OC)cc2n1` has what IC50?
26
